# Tested on: 786-0 renal
# assay.protocol: NCI tumour cell line growth inhibition, 48 h
measurement.kind: TGI (µM)
The answer is to be given in µM; state only the numeric part.

Prompt line: Which TGI is listed for NC(N)=NS(=O)(=O)c1ccc(Nc2c3ccccc3nc3c(C(=O)NC(CO)(CO)CO)cccc23)cc1 ?
Response line: 46.2

Prompt line: // TGI lookup, key: COc1cc(-c2c3c([nH]c(=O)c2C#N)-c2cc([N+](=O)[O-])ccc2CCC3)cc(OC)c1OC
Response line: 65.2

Prompt line: What TGI value was documented for this molecule, O=C1/C(=C/c2ccc(Cl)cc2)CN(Cc2cn(CCNc3ccnc4cc(Cl)ccc34)nn2)C/C1=C\c1ccc(Cl)cc1 ?
Response line: 0.616

Prompt line: If you can, please state the reported TGI value of CCN(CC)CCNc1ccc2ncn3c4c(OC)cccc4c(=O)c1c23 .
Response line: 75

====

# Test system: KM20L2 colon
# assay.protocol: NCI tumour cell line growth inhibition, 48 h
measurement.kind: TGI (µM)
Give just the number in µM; leave the unit off.

Prompt line: Fill blank: measured TGI of the compound C=C(CN(C)C)C(=O)c1cc(C)ccc1C is ____.
Response line: 61.2

Prompt line: Quick one: TGI for Cc1ccc(S(=O)(=O)N/N=C/c2oc(-c3ccccc3Cl)c(-c3ccccc3Cl)c2[N+](=O)[O-])cc1 ?
Response line: 37.9

Prompt line: Entry O=c1[nH]cc(N(CCCl)CCCl)c(=O)[nH]1 : reported TGI = ?
Response line: 196

====

# System: DU-145 prostate
# assay.protocol: NCI tumour cell line growth inhibition, 48 h
Kindly supply the reported log10(TGI) values for the records listed here.
In our notation, the value equals log10 of TGI in µM.

Prompt line: I have this molecule here, COCC(=O)OC1CCn2c1nc1c2C(=O)C(C)=C(NC(C)=O)C1=N (configuration not stated) , and I need its recorded log10(TGI).
Response line: 1.56

Prompt line: Which log10(TGI) value is on record for C=C(CN(C)C)C(=O)c1cc(C)ccc1C ?
Response line: 1.34

Prompt line: I am curious: what log10(TGI) value has been reported for O=C1/C(=C/c2ccc([N+](=O)[O-])o2)Oc2ccccc21 ?
Response line: 0.57

Prompt line: # query: log10(TGI) of entry O=C1Nc2ccccc2/C1=C/c1ccccc1
Response line: 1.44

Prompt line: Field request: log10(TGI) | item: O=c1[nH]cc(N(CCCl)CCCl)c(=O)[nH]1
Response line: 2.48

Prompt line: For the molecule shown here, COc1ccc2c[n+](C)c3c4cc(OC)c(OC)cc4ccc3c2c1 , give the reported log10(TGI).
Response line: 1.57

Prompt line: Which log10(TGI) is reported for this molecule? CO/N=C(\COc1ccc2c(c1)oc(=O)c1cc(OC)ccc12)c1ccc(F)cc1
Response line: 1.79

Prompt line: Requested read-out: log10(TGI). Entry: O=C1CSC(=S)N1Cc1cccnc1
Response line: 0.76

Prompt line: What log10(TGI) value was documented for this molecule, COc1cc(C(=O)/C=C/c2c(-c3ccc(F)cc3)nc3ncccn23)cc(OC)c1OC ?
Response line: 0.79

====

# Test system: HT29 colon
# assay.protocol: NCI tumour cell line growth inhibition, 48 h
measurement.kind: TGI

Prompt line: Would you mind telling me what TGI value was observed for Cc1nn(-c2ccccc2)c2c1C(c1cc3ccccc3nc1Cl)NC(=S)N2 (stereo not given) ?
Response line: > 100 µM

Prompt line: State the recorded TGI for this entry: COc1cc2c3c(n(CCCCNC(=O)OCC4c5ccccc5-c5ccccc54)c(=O)c2cc1OC)-c1cc2c(cc1C3=O)OCO2
Response line: > 100 µM

Prompt line: Would you mind telling me what TGI value was observed for Cn1cnc([N+](=O)[O-])c1SC1=NCCS1 ?
Response line: > 100 µM

Prompt line: Look at this compound and give its reported TGI. CC(=O)Nc1ccc2c(c1)C(=O)c1cccc(F)c1-2
Response line: > 100 µM

Prompt line: Which value of TGI has been reported for N#Cc1c(NC(=O)c2cccc3ccccc23)sc2c1CCCC2 in the records?
Response line: 0.224 µM

====

# Test system: U251 CNS
Outcomes you can answer with include only these: True for active, False for inactive

Prompt line: Any idea what this test logged for COc1ccc2c(c1)C(=O)/C(=C/c1ccc([N+](=O)[O-])s1)O2 ?
Response line: True

Prompt line: Write down the call the test reported for this compound. Item: CC(=O)c1c(O)ccc2c(C)c(C(=O)O)oc12
Response line: False

Prompt line: Lab log entry: COc1ccc(Cn2cc3c(c2-c2ccc(O)cc2)CCc2cnoc2-3)cc1 — outcome as called in the assay?
Response line: False

Prompt line: How did this test come out for O=C(Nc1cccc([N+](=O)[O-])c1)c1ccc2ccccc2c1O ?
Response line: False

Prompt line: What call does the record list for c1ccc2c(-c3nc4ccccc4[nH]3)cccc2c1 ?
Response line: False

Prompt line: Outcome? CO/N=C(\COc1ccc2c(c1)oc(=O)c1cc(OC)ccc12)c1cccc(OC)c1
Response line: False

Prompt line: Please state the recorded outcome for this compound: O=C(NCC(=O)N1CC[C@H](NC2CCC(O)(c3ccc(-c4ncccn4)cn3)CC2)C1)c1cccc(C(F)(F)F)c1 (some centres not stated)
Response line: False

Prompt line: Any idea what this test logged for CO/N=C(\COc1ccc2c(c1)oc(=O)c1cc(OC)ccc12)c1ccc(F)cc1 ?
Response line: False

Prompt line: Name the outcome recorded for COc1ccc(N(C)c2nc(Cl)nc3ccn(C)c23)cc1 in the assay.
Response line: True

Prompt line: Dear colleague, could you share the recorded outcome for O=C(Nc1ccc(Cl)cc1)c1ccc([N+](=O)[O-])o1 when you have a moment?
Response line: False

Prompt line: Recorded call for COc1cc(-n2cc(-c3ccc(F)cc3)[nH]c2=S)cc(OC)c1OC ?
Response line: False

Prompt line: // return assay outcome for COc1ccc(Cn2cnc3cc(C(=O)Nc4cccc5ccccc45)ccc32)c(OC)c1
Response line: True

====

# Tested on: SF-539 CNS
# assay.protocol: NCI tumour cell line growth inhibition, 48 h; in the data active = GI50 below about 0.43 µM; inactive = the rest
Choose the fitting class; nothing outside 1 (yes) (active), 0 (no) (inactive) is accepted.

Prompt line: In this assay, the call recorded for CO/N=C(\COc1ccc2c(c1)oc(=O)c1cc(OC)ccc12)c1cccc(OC)c1 was what?
Response line: 0 (no)

Prompt line: What is the recorded call for this molecule in the test? Cc1ccc(/C=C/C(=O)c2ccc(N)cc2)c(C)c1
Response line: 0 (no)

Prompt line: Name the outcome recorded for Cc1cc(O)ccc1O in the assay.
Response line: 0 (no)

Prompt line: Recorded test call requested for COc1ccc(/C(=N\O)c2cc(OC)c(OC)c(OC)c2)c(OC)c1N
Response line: 0 (no)

Prompt line: Could you please tell me the result logged for O=C1Nc2ccccc2/C1=C/c1cn(C(=O)c2c(Cl)cccc2Cl)c2ccccc12 in this assay?
Response line: 0 (no)

Prompt line: Test call, this molecule: O=C1/C(=C/c2ccc(Cl)cc2)CN(Cc2cn(CCNc3ccnc4cc(Cl)ccc34)nn2)C/C1=C\c1ccc(Cl)cc1
Response line: 1 (yes)

Prompt line: For CC(=O)c1c(O)ccc2c(C)c(C(=O)O)oc12 , what call appears in the results of this test?
Response line: 0 (no)

Prompt line: So what was the verdict on COc1ccc2cc3[n+](cc2c1OC)CCc1cc2c(cc1-3)OCO2 in this test?
Response line: 0 (no)

Prompt line: Please share the test call associated with O=c1[nH]ccc2nc(-c3ccc(CN4CCC(c5nc(-c6ccccn6)n[nH]5)CC4)cc3)c(-c3ccccc3)cc12 .
Response line: 0 (no)

====

So I've got a bunch of molecules here, and I need their TGI values.
# Test system: M19-MEL melanoma
# assay.protocol: NCI tumour cell line growth inhibition, 48 h

Prompt line: Value wanted: TGI (M19-MEL melanoma) of entry COc1cc2c(oc(=O)c3cc4ccoc4c(OC)c32)c2cccc(O)c12
Response line: > 100 µM

Prompt line: Given the entry O=c1[nH]c(=O)n(C2CC(O)C(CO)O2)cc1C#Cc1cc(C(F)(F)F)cc(C(F)(F)F)c1 (stereo not given) , what TGI was observed with M19-MEL melanoma?
Response line: > 74 µM

Prompt line: Observed TGI on M19-MEL melanoma for Nc1ccc(C(=O)NN2C(=O)C(Cl)C2c2ccc([N+](=O)[O-])cc2)cc1 (stereo not given) , please.
Response line: 28 µM

Prompt line: Report TGI for COc1ccc2c(c1)O[C@H]1c3ccc(O)cc3OC[C@@H]21 tested on M19-MEL melanoma.
Response line: 46 µM

Prompt line: Kindly state the measured TGI obtained for C[N+](C)(C)Cc1c(CC#N)[nH]c2ccccc12 with M19-MEL melanoma.
Response line: > 100 µM

Prompt line: Notebook entry, M19-MEL melanoma assay: TGI of Oc1ccc2c3c1OC1C(=NN=C4CCC5(O)C6Cc7ccc(O)c8c7C5(CCN6CC5CC5)C4O8)CCC4(O)C(C2)N(CC2CC2)CCC314 (stereo not given) = ?
Response line: 40.9 µM

Prompt line: Give recorded TGI with M19-MEL melanoma for the following molecule: Cc1ccc(NC(=O)C(=O)C2NC(=S)NC2=O)c([N+](=O)[O-])c1 (stereo not given)
Response line: > 100 µM

Prompt line: // map CCN(CC)CCC(=O)c1ccccc1 to recorded TGI (system: M19-MEL melanoma)
Response line: 56.1 µM

Prompt line: Item: Cc1cc(NS(=O)(=O)c2ccc(NC(=O)c3cccc4cc5ccccc5nc34)cc2)no1 Test system: M19-MEL melanoma Read-out: TGI Value: ?
Response line: 74.3 µM

Prompt line: Observed TGI on M19-MEL melanoma for S=P1(c2ccccc2)Nc2ccc(Cl)cc2N1 (stereo not given) , please.
Response line: 67.2 µM
